Where these numbers come from: paper PMC5065165

Target: T1, MjAgo (Methanocaldococcus jannaschii, UniProt Q58717 1-713)
T1 sequence: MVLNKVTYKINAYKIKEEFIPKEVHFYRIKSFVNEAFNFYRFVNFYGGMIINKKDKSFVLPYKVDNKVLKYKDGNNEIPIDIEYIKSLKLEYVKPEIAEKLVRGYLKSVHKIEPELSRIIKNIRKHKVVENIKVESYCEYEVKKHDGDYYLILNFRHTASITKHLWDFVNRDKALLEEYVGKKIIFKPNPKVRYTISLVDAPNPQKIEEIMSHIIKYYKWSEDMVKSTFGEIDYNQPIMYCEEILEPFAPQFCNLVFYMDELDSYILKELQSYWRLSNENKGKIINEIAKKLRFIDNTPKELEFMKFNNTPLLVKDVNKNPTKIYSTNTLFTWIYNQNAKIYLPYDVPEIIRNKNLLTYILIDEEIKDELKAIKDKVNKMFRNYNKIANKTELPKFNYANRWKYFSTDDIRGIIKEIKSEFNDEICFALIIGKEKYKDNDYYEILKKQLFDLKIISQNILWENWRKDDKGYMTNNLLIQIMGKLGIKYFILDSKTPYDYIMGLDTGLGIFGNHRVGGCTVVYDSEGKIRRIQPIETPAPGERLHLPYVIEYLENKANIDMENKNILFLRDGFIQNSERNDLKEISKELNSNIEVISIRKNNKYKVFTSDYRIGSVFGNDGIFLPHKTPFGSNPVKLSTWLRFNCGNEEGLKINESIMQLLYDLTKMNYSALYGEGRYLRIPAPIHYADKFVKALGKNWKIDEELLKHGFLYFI
Test: equilibrium fluorescence titration; Stopped-flow at 25 °C, 20 nM FAM-labelled guide, same buffers as titrations (buffer composition not in the material; hybridization buffer 15 mM Hepes pH 7.4, 50 mM K-acetate, 1 mM Mg-acetate)
Settings: protein: recombinant; label: C6-linked 5/6-FAM at T14
parameter: Kd (nM)
Respond with the bare value in nM.

So for TAGAGGTACGTGCTGAGGCTT (ssDNA, 5'-phosphate) [D-as2bFAM (ss guide DNA)] , the logged Kd turned out to be 3.4
